system: PI3Kδ (p110δ/p85α) Recombinant Human Protein (Homo sapiens (Human), UniProt O00329)
Sequence (O00329 whole entry): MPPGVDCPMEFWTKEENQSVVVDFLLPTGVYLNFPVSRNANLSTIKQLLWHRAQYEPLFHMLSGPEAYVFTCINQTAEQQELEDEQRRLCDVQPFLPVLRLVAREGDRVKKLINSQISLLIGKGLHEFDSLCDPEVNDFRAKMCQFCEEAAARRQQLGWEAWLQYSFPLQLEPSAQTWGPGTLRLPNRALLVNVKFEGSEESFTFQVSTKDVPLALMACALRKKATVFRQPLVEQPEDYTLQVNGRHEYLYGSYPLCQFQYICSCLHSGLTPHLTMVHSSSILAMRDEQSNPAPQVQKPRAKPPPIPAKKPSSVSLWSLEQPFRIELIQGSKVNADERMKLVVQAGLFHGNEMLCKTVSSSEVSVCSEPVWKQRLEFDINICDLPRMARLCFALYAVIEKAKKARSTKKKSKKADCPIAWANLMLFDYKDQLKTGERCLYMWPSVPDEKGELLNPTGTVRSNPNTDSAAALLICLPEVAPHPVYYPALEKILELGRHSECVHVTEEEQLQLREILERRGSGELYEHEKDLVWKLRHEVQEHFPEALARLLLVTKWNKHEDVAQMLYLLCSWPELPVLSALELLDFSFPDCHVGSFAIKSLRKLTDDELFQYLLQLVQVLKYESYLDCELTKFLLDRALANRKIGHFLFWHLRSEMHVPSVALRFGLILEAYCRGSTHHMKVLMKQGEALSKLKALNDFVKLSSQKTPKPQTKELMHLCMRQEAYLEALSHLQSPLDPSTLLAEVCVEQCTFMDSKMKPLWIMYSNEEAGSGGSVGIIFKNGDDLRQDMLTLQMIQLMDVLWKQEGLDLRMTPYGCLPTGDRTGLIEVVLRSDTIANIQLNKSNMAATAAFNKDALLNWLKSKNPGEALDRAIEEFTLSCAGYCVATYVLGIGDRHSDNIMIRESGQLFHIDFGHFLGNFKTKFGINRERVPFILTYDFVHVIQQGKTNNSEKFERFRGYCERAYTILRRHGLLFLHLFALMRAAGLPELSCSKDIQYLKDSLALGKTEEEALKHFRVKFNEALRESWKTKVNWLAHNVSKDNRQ
Sequence (P27986 whole entry partner): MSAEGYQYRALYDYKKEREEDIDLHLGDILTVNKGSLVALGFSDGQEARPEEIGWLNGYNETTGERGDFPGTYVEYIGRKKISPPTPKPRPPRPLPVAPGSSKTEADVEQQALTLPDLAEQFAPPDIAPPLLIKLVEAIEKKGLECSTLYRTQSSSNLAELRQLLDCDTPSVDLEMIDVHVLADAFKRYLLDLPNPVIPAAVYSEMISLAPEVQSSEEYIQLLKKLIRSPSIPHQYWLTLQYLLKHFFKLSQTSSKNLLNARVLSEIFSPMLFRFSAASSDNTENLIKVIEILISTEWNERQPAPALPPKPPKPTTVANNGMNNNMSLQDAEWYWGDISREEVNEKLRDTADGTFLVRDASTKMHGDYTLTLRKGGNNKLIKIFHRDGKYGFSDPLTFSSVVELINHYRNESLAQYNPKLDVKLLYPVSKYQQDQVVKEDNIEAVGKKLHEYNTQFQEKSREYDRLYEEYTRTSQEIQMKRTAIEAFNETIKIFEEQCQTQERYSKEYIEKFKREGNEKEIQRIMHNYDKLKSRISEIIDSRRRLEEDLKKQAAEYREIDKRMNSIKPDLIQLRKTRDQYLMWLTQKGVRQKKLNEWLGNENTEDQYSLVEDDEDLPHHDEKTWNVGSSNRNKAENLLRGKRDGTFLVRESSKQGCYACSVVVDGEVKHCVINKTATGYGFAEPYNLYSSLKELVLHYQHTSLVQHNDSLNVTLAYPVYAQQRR
protocol-summary: PI3Kδ Scintillation Proximity Assay
cond: read-out: PI3K-delta SPA IC50
Counter-ions that a name gives are not always drawn.
Record form. Attribute: IC50. Fill in for each entry.

Go through the list and state IC50 for each entry.
1. COc1cncc(-c2ccnc(-c3nc(C)c(NC(C)=O)[nH]3)c2)c1 [Example 75]
2. Cc1nc(-c2cc(C3=CCN(Cc4ccccc4)C3)ccn2)[nH]c1C [Example 228, trifluoroacetate salt]
3. Cc1nc(-c2cc(-c3cncc(C(=O)N4CCC(c5ccccn5)C4)c3)ccn2)[nH]c1C (racemic) [Example 170, trifluoroacetate salt]
4. CCCn1cc(-c2ccnc(-c3ncc(-c4ccccc4)[nH]3)c2)cn1 [Example 12, trifluoroacetate salt]

1. > 500 nM
2. > 500 nM
3. ≤ 50 nM
4. ≤ 500 nM

Could you report IC50 for every entry in the following list?
1. Cc1nc(-c2cc(-c3cncc(C(=O)NC(C)C)c3)ccn2)[nH]c1C [Example 157, trifluoroacetate salt]
2. COc1cncc(-c2ccnc(-c3nc4c([nH]3)CCC4)c2)c1 [Example 78]

1. ≤ 500 nM
2. ≤ 500 nM

Which IC50 is reported for this molecule? CC(=O)N1CC=C(c2cncc(-c3ccnc(-c4nc(C)c(C)[nH]4)c3)c2)C1 [Example 238] ≤ 500 nM

* * *

system: PI3Kδ (p110δ/p85α) Recombinant Human Protein (Homo sapiens (Human), UniProt O00329)
protocol-summary: PI3Kδ Scintillation Proximity Assay
cond: read-out: PI3K-delta SPA IC50
pIC50: −log10 of the molar value. Structures can show the parent of a compound that is named as a salt.
Kindly supply the reported pIC50 values for the records listed here.

compound	system	assay-value
CNCc1nc(-c2cc(-c3cncc(N4CCOCC4)c3)ccn2)[nH]c1C [Example 288]	PI3Kδ (p110δ/p85α) Recombinant Human Protein (Homo sapiens (Human), UniProt O00329)	≥ 6.30
COc1cncc(-c2ccnc(-c3nnc(C)[nH]3)c2)c1 [Example 73]	PI3Kδ (p110δ/p85α) Recombinant Human Protein (Homo sapiens (Human), UniProt O00329)	< 6.30
N#Cc1ccc(Cn2cc(-c3ccnc(-c4ncc(-c5ccccc5)[nH]4)c3)cn2)cc1 [Example 43, trifluoroacetate salt]	PI3Kδ (p110δ/p85α) Recombinant Human Protein (Homo sapiens (Human), UniProt O00329)	< 6.30

Please examine the following record next.
Need pIC50 of CS(=O)(=O)c1cncc(-c2ccnc(-c3ncc(C4CCC4)[nH]3)c2)c1 [Example 113, trifluoroacetate salt] , thanks. ≥ 7.30

* * *

Give pIC50 for every item shown.
system: PI3Kγ (p110γ) Recombinant Human Protein (Homo sapiens (Human), UniProt P48736)
Sequence (P48736 whole entry): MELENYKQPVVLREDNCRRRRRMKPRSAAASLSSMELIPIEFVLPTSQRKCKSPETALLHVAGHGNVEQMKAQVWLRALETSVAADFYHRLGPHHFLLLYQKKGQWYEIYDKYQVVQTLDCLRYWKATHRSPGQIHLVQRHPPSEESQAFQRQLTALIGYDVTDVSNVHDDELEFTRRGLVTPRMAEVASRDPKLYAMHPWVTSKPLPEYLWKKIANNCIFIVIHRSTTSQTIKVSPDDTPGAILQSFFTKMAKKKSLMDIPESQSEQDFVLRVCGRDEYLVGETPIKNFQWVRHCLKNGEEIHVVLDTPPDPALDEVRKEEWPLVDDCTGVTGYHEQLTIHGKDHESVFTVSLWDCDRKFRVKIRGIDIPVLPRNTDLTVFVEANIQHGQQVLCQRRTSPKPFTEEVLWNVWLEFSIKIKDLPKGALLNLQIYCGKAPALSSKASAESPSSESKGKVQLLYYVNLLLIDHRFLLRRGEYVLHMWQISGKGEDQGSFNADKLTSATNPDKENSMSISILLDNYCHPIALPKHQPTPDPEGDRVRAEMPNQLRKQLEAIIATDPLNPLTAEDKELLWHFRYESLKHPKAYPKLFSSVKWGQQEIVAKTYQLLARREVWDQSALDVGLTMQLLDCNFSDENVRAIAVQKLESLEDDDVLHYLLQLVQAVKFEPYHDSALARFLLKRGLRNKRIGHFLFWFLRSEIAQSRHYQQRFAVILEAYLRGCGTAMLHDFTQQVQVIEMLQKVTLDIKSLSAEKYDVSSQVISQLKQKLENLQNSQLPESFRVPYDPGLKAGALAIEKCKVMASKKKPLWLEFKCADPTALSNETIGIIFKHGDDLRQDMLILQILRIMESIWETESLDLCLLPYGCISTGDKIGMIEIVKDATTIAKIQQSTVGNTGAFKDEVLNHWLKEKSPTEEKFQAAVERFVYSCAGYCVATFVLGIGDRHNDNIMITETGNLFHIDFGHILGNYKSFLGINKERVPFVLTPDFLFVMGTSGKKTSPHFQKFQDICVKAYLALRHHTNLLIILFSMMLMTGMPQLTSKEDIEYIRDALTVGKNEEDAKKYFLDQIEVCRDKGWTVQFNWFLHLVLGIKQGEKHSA
protocol-summary: PI3K-γ Scintillation Proximity Assay
cond: read-out: PI3K-gamma SPA IC50
pIC50: −log10 of the molar value. Structures can show the parent of a compound that is named as a salt.

# example entries with known answers
compound	endpoint	assay-value
Cc1nc(-c2cc(-c3cncc(Nc4ccccc4)c3)ccn2)[nH]c1C	pIC50	≥ 7.30
Cc1[nH]c(-c2cc(-c3cncc(N4CCOCC4)c3)ccn2)nc1C(=O)NC(C)C [Example 268, trifluoroacetate salt]	pIC50	≥ 7.30

Respectfully, I request pIC50 for each entry included below.
1. Cc1[nH]c(-c2cc(-c3cncc(N4CCOCC4)c3)ccn2)nc1C(=O)N1CC(C(F)(F)F)C1
2. Cc1nc(-c2cc(-c3cncc(C(=O)N4CCC(c5cnccn5)C4)c3)ccn2)[nH]c1C (stereo not shown) [Example 197, trifluoroacetate salt]

≥ 7.30
≥ 7.00
